Record set of IC50 for target or system UniProt P07948.
Sequence (P07948 whole entry): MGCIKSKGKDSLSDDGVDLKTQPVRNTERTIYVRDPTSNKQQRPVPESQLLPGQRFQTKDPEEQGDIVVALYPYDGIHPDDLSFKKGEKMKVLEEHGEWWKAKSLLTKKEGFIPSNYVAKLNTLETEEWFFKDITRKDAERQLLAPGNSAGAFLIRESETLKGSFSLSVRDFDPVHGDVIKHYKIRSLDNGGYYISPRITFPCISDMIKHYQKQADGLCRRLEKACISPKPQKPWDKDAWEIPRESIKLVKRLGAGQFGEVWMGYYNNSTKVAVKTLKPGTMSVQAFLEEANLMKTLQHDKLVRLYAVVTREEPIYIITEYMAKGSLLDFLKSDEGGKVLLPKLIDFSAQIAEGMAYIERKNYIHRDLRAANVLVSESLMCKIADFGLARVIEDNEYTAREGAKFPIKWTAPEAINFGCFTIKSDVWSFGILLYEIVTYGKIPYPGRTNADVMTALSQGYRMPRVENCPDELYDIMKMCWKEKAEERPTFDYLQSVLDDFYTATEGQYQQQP

| compound | measured_value |
| --- | --- |
| Nc1ncnc2c1c(-c1ccc(Oc3ccccc3)cc1)nn2C[C@H]1SSC[C@@H]1O [43 B.] | 5 to 99 nM |

Turning now to a further record.
Value wanted: IC50 (UniProt P07948) of entry Nc1ncnc2c1c(-c1ccc(Oc3ccccc3)cc1)nn2C[C@H]1SSC[C@H]1O [46 B.]
5 to 99 nM

###

Biological target: MEK2 (Homo sapiens (Human), UniProt P36507)
Assay: KINOMEscan competition binding assay (Kd)
Settings: read-out: Kd Values Against MEK Kinases Isoforms: MEK2
pKd: −log10 of the molar value.
measure: pKd

// query pKd value for entry Nc1ncnc2c1c(-c1ccc(Oc3ccccc3)cc1)nn2C[C@H]1SSC[C@H]1O [46 B.]
6.00 to 7.00

###

Target: FYN-Y531F (Homo sapiens (Human), UniProt P06241, Y531F)
Experiment: Radioisotope filter binding assay
Conditions: read-out: IC50 Activity Levels Against FYN Mutant: FYN-Y531F
measure: IC50

Example cases with answers are listed next.
| chem_smiles | target_or_system | IC50 |
| --- | --- | --- |
| Nc1ncnc2c1c(-c1ccc(Oc3ccccc3)cc1)nn2C[C@H]1SSC[C@@H]1O | FYN-Y531F (Homo sapiens (Human), UniProt P06241, Y531F) | 100 to 999 nM |
| Nc1ncnc2c1c(-c1ccc(Oc3ccccc3)cc1)nn2C[C@H]1SSC[C@H]1O | FYN-Y531F (Homo sapiens (Human), UniProt P06241, Y531F) | 5 to 99 nM |
| Nc1ncnc2c1c(-c1ccc(Oc3ccccc3)cc1)nn2C[C@@H]1SSC[C@H]1O | FYN-Y531F (Homo sapiens (Human), UniProt P06241, Y531F) | 5 to 99 nM |

Turning now to a further record.
// query IC50 value for entry Nc1ncnc2c1c(-c1ccc(Oc3ccccc3)cc1)nn2C[C@@H]1SSC[C@@H]1O
5 to 99 nM

###

Target: PI3K β (Homo sapiens (Human))
measure: IC50

// query IC50 value for entry Nc1nc2cc(-c3nn(C[C@@H]4SSC[C@H]4OC(=O)c4ccccc4)c4ncnc(N)c34)ccc2o1 (relative stereo) [Example 55]
1 to 10 µM

###

Target: LCK (Homo sapiens (Human))
Sequence (P06239 whole entry): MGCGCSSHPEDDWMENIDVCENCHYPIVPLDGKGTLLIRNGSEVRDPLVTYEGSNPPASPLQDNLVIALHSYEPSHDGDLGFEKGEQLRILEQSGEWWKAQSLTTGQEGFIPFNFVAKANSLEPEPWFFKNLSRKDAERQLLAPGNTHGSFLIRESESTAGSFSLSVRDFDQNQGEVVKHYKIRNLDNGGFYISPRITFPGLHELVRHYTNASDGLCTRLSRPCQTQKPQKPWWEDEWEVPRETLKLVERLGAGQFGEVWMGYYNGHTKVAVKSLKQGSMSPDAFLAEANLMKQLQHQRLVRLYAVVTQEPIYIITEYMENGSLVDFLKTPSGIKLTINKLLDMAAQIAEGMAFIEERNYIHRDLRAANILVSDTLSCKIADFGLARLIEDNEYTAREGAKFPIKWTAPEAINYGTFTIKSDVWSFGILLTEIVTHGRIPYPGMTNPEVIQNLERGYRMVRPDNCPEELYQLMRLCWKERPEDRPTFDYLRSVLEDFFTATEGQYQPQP
Test: Radioisotope filter binding assay
Assay type: biochemical
Details: read-out: IC50 Activity Levels Against SRC Family Kinases: LCK
Procedure: 3. Radioisotope Filter Binding Assay: In this assay format, it directly detects the true product without the use of modified substrates or coupling enzymes (Uitdehaag, J. C., et al. Br. J. Pharmacol. 2012, 166, 858-876; Hastie, C. J., et al. Nat. Protoc. 2006, 1, 968-971) according to equation 1. Substrate+[γ−^33P]−ATP→^33P-Substrate+ADP eq 1 The protocol calls for test compound of the invention to be incubated with kinase, substrate, cofactors, and radio-isotope-labeled ATP (^33P-gamma-ATP). […]
measure: IC50

Example cases with answers are listed next.
| chem_smiles | IC50 |
| --- | --- |
| Nc1ncnc2c1c(-c1ccc(Oc3ccccc3)cc1)nn2C[C@@H]1SSC[C@H]1O | < 5 nM |
| Nc1ncnc2c1c(-c1ccc(Oc3ccccc3)cc1)nn2C[C@H]1SSC[C@H]1O | < 5 nM |
| Nc1ncnc2c1c(-c1ccc(Oc3ccccc3)cc1)nn2C[C@@H]1SSC[C@@H]1O | 5 to 99 nM |

Turning now to a further record.
// query IC50 value for entry Nc1ncnc2c1c(-c1ccc(Oc3ccccc3)cc1)nn2C[C@H]1SSC[C@@H]1O
< 5 nM

###

Target: ITK (Homo sapiens (Human))
Sequence (Q08881 whole entry): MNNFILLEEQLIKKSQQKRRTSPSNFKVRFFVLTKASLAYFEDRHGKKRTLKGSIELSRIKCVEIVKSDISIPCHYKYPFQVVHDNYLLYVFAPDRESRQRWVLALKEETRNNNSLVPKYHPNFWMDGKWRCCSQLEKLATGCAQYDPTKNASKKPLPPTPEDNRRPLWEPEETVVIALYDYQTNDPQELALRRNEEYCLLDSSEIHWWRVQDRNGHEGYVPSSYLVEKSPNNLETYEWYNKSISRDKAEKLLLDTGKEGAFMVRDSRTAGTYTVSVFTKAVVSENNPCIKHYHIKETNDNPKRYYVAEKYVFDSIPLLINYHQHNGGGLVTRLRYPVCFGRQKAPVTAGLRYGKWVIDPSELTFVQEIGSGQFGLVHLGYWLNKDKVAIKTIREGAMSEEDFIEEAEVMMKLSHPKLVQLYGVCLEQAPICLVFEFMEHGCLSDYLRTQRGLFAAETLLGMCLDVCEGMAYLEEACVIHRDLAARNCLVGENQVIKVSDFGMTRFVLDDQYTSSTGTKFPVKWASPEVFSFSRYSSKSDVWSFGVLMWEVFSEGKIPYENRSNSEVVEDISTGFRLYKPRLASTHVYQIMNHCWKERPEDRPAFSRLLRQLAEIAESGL
measure: IC50

// query IC50 value for entry Nc1ncnc2c1c(-c1ccc(Oc3ccccc3)cc1)nn2C[C@H]1SSC[C@@H]1O [43 B.]
1 to 10 µM

###

Record set of Kd for target or system mTOR (Homo sapiens (Human), UniProt P42345).

Example cases with answers are listed next.
| compound | Kd |
| --- | --- |
| COc1ccc(-c2nn(CC3SSCC3O)c3ncnc(N)c23)cc1 (centres unmarked) [36 B.] | 100 to 999 nM |
| Nc1ncnc2c1c(-c1ccc(Oc3ccccc3)cc1)nn2C[C@H]1SSC[C@@H]1O [43 B.] | 100 to 999 nM |

Hey, can you go through the list below and give me Kd for every item?
1. Nc1ncnc2c1c(-c1ccc(Oc3ccccc3)cc1)nn2C[C@H]1SSC[C@H]1O [46 B.]
2. Nc1ncnc2c1c(-c1ccc(Oc3ccccc3)cc1)nn2C[C@@H]1SSC[C@@H]1O [46 A.]

["100 to 999 nM", "100 to 999 nM"]

Value wanted: Kd (mTOR (Homo sapiens (Human), UniProt P42345)) of entry CO[C@@H]1CSS[C@H]1Cn1nc(-c2ccc(Oc3ccccc3)cc2)c2c(N)ncnc21 (relative stereo) [Example 37]
1000 to 10000 nM

###

Biological target: BRAF (V600E) (Homo sapiens (Human), UniProt P15056, V600E)
Assay: KINOMEscan competition binding assay (Kd)
Details: read-out: Kd Values Against MAPK Pathway Kinases: BRAF (V600E)
measure: Kd

Value wanted: Kd (BRAF (V600E) (Homo sapiens (Human), UniProt P15056, V600E)) of entry Nc1ncnc2c1c(-c1ccc(Oc3ccccc3)cc1)nn2C[C@H]1SSC[C@H]1O
1 to 10 µM

###

Target: FYN isoform (a) (Homo sapiens (Human), UniProt P06241)
Sequence (P06241 whole entry, canonical isoform): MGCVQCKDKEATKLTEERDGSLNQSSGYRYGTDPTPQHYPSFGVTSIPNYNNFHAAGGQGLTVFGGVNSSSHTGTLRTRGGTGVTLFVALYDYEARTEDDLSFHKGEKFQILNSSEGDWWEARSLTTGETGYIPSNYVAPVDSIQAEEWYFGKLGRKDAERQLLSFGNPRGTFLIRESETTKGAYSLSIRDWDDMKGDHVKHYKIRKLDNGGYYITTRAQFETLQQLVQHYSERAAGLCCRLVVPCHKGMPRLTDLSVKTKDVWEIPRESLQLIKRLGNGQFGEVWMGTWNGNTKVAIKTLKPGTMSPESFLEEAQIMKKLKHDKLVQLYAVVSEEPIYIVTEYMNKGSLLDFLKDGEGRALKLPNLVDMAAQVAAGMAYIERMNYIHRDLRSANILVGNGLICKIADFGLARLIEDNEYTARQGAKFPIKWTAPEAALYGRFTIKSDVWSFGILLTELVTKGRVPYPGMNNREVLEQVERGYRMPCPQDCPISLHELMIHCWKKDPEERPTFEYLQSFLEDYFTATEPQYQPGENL
Test: Kinase binding assay CaPBA
Conditions: read-out: IC50 Activity Levels Against FYN isoforms, YES1 and MEK5: FYN isoform (a)
measure: IC50

| chem_smiles | IC50 |
| --- | --- |
| Nc1ncnc2c1c(-c1ccc(Oc3ccccc3)cc1)nn2C[C@@H]1SSC[C@H]1O | 5 to 99 nM |

Turning now to a further record.
// query IC50 value for entry Nc1ncnc2c1c(-c1ccc(Oc3ccccc3)cc1)nn2C[C@H]1SSC[C@@H]1O
5 to 99 nM

###

Could you please report measured pKd for the items listed next?
Biological target: UniProt Q13163
Sequence (Q13163 whole entry): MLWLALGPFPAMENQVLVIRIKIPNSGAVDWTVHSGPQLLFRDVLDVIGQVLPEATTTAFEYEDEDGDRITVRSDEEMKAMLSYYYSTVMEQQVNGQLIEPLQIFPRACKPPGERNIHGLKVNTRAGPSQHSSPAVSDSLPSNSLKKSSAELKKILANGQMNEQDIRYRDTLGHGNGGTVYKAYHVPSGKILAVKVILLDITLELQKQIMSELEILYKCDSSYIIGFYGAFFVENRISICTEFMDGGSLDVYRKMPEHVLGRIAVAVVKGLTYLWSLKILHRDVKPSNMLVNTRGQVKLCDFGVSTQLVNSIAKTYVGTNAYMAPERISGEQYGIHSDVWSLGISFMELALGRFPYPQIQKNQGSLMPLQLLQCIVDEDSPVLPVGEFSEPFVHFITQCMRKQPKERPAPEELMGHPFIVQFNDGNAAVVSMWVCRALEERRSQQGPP
Assay: KINOMEscan competition binding assay (Kd)
Details: Table 12, read-out: Kd Values Against MEK Kinases Isoforms: MEK5
pKd: −log10 of the molar value.

Example cases with answers are listed next.
| molecule | measured_value |
| --- | --- |
| Nc1ncnc2c1c(-c1ccc(Oc3ccccc3)cc1)nn2C[C@H]1SSC[C@@H]1O [43 B.] | > 8.30 |
| Nc1ncnc2c1c(-c1ccc(Oc3ccccc3)cc1)nn2C[C@H]1SSC[C@H]1O [46 B.] | > 8.30 |

Turning now to a further record.
// query pKd value for entry Nc1ncnc2c1c(-c1ccc(Oc3ccccc3)cc1)nn2C[C@@H]1SSC[C@@H]1O [46 A.]
> 8.30

###

Molecular target: RET (Homo sapiens (Human))
Sequence (P07949 29-1114): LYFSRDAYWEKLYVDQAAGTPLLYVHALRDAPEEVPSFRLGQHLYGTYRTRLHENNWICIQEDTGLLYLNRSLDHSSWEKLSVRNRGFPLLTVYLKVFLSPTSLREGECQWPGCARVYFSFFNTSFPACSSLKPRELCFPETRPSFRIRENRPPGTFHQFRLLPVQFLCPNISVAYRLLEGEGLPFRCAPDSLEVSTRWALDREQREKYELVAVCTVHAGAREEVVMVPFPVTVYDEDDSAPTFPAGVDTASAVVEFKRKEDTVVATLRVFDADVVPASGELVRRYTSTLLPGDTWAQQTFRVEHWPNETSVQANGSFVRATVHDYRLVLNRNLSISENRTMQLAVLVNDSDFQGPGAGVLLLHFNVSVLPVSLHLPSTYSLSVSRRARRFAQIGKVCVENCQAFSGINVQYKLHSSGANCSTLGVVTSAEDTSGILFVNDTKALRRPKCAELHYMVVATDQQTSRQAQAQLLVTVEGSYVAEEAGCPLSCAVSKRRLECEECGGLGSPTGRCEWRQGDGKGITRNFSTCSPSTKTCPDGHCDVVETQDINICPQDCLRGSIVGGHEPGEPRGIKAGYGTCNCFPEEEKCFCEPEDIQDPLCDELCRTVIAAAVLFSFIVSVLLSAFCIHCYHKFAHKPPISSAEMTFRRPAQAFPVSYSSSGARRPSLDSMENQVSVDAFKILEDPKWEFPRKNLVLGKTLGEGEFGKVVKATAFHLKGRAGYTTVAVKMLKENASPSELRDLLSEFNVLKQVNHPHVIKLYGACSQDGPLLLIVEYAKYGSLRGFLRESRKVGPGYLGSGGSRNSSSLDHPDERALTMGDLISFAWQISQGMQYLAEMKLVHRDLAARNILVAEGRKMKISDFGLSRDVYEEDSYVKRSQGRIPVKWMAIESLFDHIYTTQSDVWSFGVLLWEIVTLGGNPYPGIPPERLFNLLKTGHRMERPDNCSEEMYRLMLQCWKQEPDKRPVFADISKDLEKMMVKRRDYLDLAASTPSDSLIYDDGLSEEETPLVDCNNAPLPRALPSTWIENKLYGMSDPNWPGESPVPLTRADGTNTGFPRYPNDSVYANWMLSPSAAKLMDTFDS
measure: IC50

// query IC50 value for entry Nc1ncnc2c1c(-c1ccc(Oc3ccccc3)cc1)nn2C[C@@H]1SSC[C@@H]1O
100 to 999 nM

###

Biological target: ERK2 (Homo sapiens (Human), UniProt P28482)
measure: Kd

Value wanted: Kd (ERK2 (Homo sapiens (Human), UniProt P28482)) of entry Nc1ncnc2c1c(-c1ccc(Oc3ccccc3)cc1)nn2C[C@H]1SSC[C@H]1O
1 to 10 µM

###

Could you please report measured pIC50 for the items listed next?
Target: FGR (Homo sapiens (Human), UniProt P09769)
Sequence (P09769 whole entry): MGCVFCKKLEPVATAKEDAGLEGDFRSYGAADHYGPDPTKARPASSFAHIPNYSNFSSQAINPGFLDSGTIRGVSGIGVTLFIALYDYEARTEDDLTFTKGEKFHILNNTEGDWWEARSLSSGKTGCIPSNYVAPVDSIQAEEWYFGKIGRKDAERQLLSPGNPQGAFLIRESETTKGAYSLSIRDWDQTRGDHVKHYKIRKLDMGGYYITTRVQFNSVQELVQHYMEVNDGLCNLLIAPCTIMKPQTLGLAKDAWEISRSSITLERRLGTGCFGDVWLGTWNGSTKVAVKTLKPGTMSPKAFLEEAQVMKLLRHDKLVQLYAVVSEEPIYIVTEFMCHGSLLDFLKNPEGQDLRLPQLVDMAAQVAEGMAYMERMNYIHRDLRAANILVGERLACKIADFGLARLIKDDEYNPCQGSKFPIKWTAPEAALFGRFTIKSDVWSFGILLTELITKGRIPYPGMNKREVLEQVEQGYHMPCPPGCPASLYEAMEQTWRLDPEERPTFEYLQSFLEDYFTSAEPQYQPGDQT
Test: Radioisotope filter binding assay
Type: biochemical
Conditions: read-out: IC50 Activity Levels Against SRC Family Kinases: FGR
pIC50: −log10 of the molar value.

Example cases with answers are listed next.
| chem_smiles | pIC50 |
| --- | --- |
| Nc1ncnc2c1c(-c1ccc(Oc3ccccc3)cc1)nn2C[C@@H]1SSC[C@H]1O | > 8.30 |
| Nc1ncnc2c1c(-c1ccc(Oc3ccccc3)cc1)nn2C[C@H]1SSC[C@@H]1O | > 8.30 |
| Nc1ncnc2c1c(-c1ccc(Oc3ccccc3)cc1)nn2C[C@H]1SSC[C@H]1O | > 8.30 |

// query pIC50 value for entry Nc1ncnc2c1c(-c1ccc(Oc3ccccc3)cc1)nn2C[C@@H]1SSC[C@@H]1O
7.00 to 8.30

###

Molecular target: UniProtKB Q13882
Sequence (Q13882 whole entry): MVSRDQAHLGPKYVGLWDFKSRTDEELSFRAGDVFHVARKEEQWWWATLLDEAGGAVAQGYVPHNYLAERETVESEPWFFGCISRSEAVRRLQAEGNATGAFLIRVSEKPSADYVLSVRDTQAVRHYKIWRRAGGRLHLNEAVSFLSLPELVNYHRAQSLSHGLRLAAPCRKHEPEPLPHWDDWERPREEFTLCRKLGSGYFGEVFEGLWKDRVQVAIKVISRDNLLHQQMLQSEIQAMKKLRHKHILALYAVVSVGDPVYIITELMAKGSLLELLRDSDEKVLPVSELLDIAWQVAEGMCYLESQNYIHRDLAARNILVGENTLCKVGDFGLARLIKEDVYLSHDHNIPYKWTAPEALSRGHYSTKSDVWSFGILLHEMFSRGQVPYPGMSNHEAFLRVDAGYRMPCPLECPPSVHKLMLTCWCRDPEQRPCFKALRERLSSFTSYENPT
measure: IC50

// query IC50 value for entry Nc1ncnc2c1c(-c1ccc(Oc3ccccc3)cc1)nn2C[C@H]1SSC[C@@H]1O
5 to 99 nM

###

Molecular target: HER4 (Homo sapiens (Human), UniProt Q15303)
pIC50: −log10 of the molar value.
Could you please report measured pIC50 for the items listed next?

| compound | pIC50 |
| --- | --- |
| Nc1ncnc2c1c(-c1ccc(Oc3ccccc3)cc1)nn2C[C@@H]1SSC[C@@H]1O [46 A.] | 5.00 to 6.00 |

Turning now to a further record.
// query pIC50 value for entry Nc1ncnc2c1c(-c1ccc(Oc3ccccc3)cc1)nn2C[C@H]1SSC[C@H]1O [46 B.]
7.00 to 8.30

Sourced from patent US10844038B2
